Taken from patent US20110262445A1.

- subject_of_test: T1, human IL-23 (human, UniProt P29460 23-328; Q9NPF7 20-189)
- T1 construct: Recombinant (Ebioscience); HIS-tagged in flow cytometry, biotinylated in some assays; also called hIL-23; rhIL-23
- T1 sequence 1: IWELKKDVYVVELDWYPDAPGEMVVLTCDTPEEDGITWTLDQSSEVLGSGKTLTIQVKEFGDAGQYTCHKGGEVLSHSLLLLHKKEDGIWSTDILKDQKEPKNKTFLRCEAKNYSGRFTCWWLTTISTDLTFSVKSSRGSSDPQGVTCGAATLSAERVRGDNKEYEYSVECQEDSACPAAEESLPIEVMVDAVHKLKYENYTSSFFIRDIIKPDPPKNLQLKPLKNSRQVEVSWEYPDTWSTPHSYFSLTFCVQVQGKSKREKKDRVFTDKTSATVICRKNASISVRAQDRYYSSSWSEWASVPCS
- T1 sequence 2: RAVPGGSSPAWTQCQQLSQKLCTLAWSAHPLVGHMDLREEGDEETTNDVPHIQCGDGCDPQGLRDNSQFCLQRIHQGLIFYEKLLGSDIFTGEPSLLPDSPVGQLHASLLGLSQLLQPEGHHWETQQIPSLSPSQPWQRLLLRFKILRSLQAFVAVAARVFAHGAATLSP
- protocol_description: ELISA, coated IL-23
measured_quantity: binding result

Input line: Report binding result for Antibody 202 (antibody, human IgG1, kappa, V domains shown, not the murine PMA202) VH: QVQLVQSGAEVKKPGASVKVSCKASGYTLTDYYLHWVRQAPGQGLEWMGWIDPENGDTESAPKFQGRVTMTTDTSTSTAYMELRSLRSDDTAVYYCAANKELRYFDVWGQGTMVTVSS VL: EIVMTQSPATLSVSPGERATLSCRASQSISINLHWYQQKPGQAPRLLIYFASQSISGIPARFSGSGSGTEFTLTISSLQSEDFAVYYCQQSNSFPLTFGGGTKVEIKR
Output line: binds
